target: JAK1 (Homo sapiens (Human), UniProt P23458); assay: In vitro JAK kinase assay (TR-FRET), JAK1; conditions: catalytic domain aa 850-1154, GST-fusion; ATP 3 μM; peptide 60 nM; 30 minutes at room temperature
Sequence (P23458 850-1154): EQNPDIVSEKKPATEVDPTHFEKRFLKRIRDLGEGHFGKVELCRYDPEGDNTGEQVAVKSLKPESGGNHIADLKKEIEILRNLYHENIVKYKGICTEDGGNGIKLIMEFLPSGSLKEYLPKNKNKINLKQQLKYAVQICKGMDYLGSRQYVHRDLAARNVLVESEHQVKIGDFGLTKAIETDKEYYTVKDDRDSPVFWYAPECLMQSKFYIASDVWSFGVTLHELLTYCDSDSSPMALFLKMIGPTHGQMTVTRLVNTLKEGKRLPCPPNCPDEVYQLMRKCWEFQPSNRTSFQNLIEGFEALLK
pIC50: −log10 of the molar value.
parameter_measured: pIC50

Previously resolved entries follow.
N#CCC(=O)N1CCC[C@@H](Oc2nc(-c3cnn4ccccc34)nc(-c3ccnc(CO)c3)c2F)C1 [Example 73]    7.89
Cc1cc(-c2nc(-c3cnn4ccccc34)nc(N[C@@H]3CCCN(C(=O)CO)C3)c2F)cc(C)n1 [Example 86]    9.00

[1] CC(C)OC(=O)c1nc(-c2cnn3ccccc23)nc(N[C@@H]2CCCN(C(=O)CO)C2)c1F [Example 92]
[2] Cc1c(N[C@@H]2CCCN(C(=O)CO)C2)nc(-c2cnn3ccccc23)nc1N1CCOCC1 [Example 26]
[3] COC[C@@H](C)Oc1nc(-c2cnn3ccccc23)nc(N[C@@H]2CCCN(c3cnc(C#N)cn3)C2)c1F [Example 91]
[4] Cc1cc(-c2nc(-c3cnn4ccccc34)nc(N(C)[C@@H]3CCCN(C(=O)CC#N)C3)c2F)ccn1 [Example 21]
[5] COCCOc1cc(N[C@@H]2CCCN(C(=O)CC#N)C2)nc(-c2cnn3ccccc23)n1 [Example 97]
Sequence the entries by pIC50, beginning with the highest number. Write out the labels following the order that was asked for.
5, 4, 1, 2, 3
(5: 8.70, 4: 8.22, 1: 7.92, 2: 7.59, 3: 6.94)

[I] NC(=O)c1nc(-c2cnn3ccccc23)nc(N[C@@H]2CCCN(C(=O)CO)C2)c1F [Example 48]
[II] CN1CCN(c2nc(-c3cnn4ccccc34)nc(O[C@@H]3CCCN(C(=O)CO)C3)c2F)CC1 [Example 67]
[III] N#Cc1cnc(N2CCC[C@@H](Nc3cc(OCCO)nc(-c4cnn5ccccc45)n3)C2)cn1 [Example 104]
Sequence the entries by pIC50, beginning with the highest number. Write out the labels following the order that was asked for.
III, I, II

---

target: JAK2 (Homo sapiens (Human)); assay: In vitro JAK kinase assay (TR-FRET), JAK2; details: catalytic domain aa 826-1132, GST-fusion; ATP 0.2 μM; peptide 20 nM; 30 minutes at room temperature
Sequence (O60674 826-1132): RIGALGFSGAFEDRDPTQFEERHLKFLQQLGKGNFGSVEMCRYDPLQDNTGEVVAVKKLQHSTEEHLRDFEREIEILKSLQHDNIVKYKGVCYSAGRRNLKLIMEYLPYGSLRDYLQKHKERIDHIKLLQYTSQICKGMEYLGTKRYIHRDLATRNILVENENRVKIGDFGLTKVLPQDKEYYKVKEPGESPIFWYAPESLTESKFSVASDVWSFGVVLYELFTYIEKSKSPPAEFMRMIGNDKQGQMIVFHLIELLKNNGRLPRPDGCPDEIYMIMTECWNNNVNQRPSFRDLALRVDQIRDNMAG
pIC50: −log10 of the molar value.
parameter_measured: pIC50

COc1nc(-c2cnn3ccccc23)nc(N[C@@H]2CCCN(C(=O)CO)C2)c1C [Example 93]    8.52
N#CCC(=O)N1CCC[C@@H](Nc2nc(-c3cnn4ccccc34)nc(OCCO)c2F)C1 [Example 14]    9.30
C[C@H](Nc1nc(-c2cnn3ccccc23)nc(OC[C@@H](O)CO)c1F)c1ncc(F)cn1 [Example 13]    9.00
Cc1cc(-c2nc(-c3cnn4ccccc34)nc(N[C@@H]3CCCN(C(=O)CO)C3)c2F)cc(C)n1 [Example 86]    8.52
Cc1cc(-c2nc(-c3cnn4ccccc34)nc(N[C@@H]3CCCN(C(=O)CC#N)C3)c2F)cc(C)n1 [Example 87]    9.00

[I] CC(C)(O)Cn1cc(-c2nc(-c3cnn4ccccc34)nc(N[C@@H]3CCCN(C(=O)CO)C3)c2F)cn1 [Example 33]
[II] O=C(CO)N1CCC[C@@H](Nc2nc(-c3cnn4ccccc34)nc(-c3cncc(CO)c3)c2F)C1 [Example 88]
Name the one with the greater pIC50 value, either I or II as given. # answer = label of selected item
I
(I: 9.22, II: 9.00)

[I] N#CCC(=O)N1CCC[C@@H](Oc2nc(-c3cnn4ccccc34)nc(-c3ccnc(CO)c3)c2F)C1 [Example 73]
[II] CN1CCN(c2nc(-c3cnn4ccccc34)nc(O[C@@H]3CCCN(C(=O)CC#N)C3)c2F)CC1 [Example 68]
Name the one with the greater pIC50 value, either I or II as given. # answer = label of selected item
II

---

molecular target: JAK1 (Homo sapiens (Human)); assay: In vitro JAK kinase assay (TR-FRET), JAK1; conditions: catalytic domain aa 850-1154, GST-fusion; ATP 3 μM; peptide 60 nM; 30 minutes at room temperature
parameter_measured: IC50 (µM)

CN1CCN(c2nc(-c3cnn4ccccc34)nc(N[C@@H]3CCCN(C(=O)CO)C3)c2F)CC1 [Example 25]    0.022
Cc1ccn2ncc(-c3nc(N[C@@H]4CCCN(C(=O)CO)C4)c(F)c(N4CCOCC4)n3)c2c1 [Example 29]    0.027
O=C(CO)N1CCC[C@@H](Nc2nc(-c3cnn4ccccc34)nc(-c3ccnc(CO)c3)c2F)C1 [Example 37]    0.002
Cc1cc(-c2nc(-c3cnn4ccccc34)nc(N[C@@H]3CCCN(C(=O)CO)C3)c2F)ccn1 [Example 34]    0.002
CCOC(=O)c1ccc(-c2nc(-c3cnn4ccccc34)nc(N[C@@H]3CCCN(C(=O)CO)C3)c2F)cn1 [Example 38]    0.004
CCOC(=O)C1(C)CCN(c2nc(-c3cnn4ccccc34)nc(N[C@@H]3CCCN(C(=O)CO)C3)c2F)CC1 [Example 28]    0.005
O=C(CO)N1CCC[C@@H](Oc2nc(-c3cnn4ccccc34)nc(NCCO)c2F)C1 [Example 69]    0.037
N#CC[C@H]1CC[C@H](Nc2nc(-c3cnn4ccccc34)nc(N3CCC(N)CC3)c2F)CC1 [Example 2]    0.082
O=C(CO)N1CCC[C@@H](Nc2nc(-c3cnn4ccccc34)nc(OCCCO)c2F)C1 [Example 41]    0.008
N#Cc1cnc(N2CCC[C@@H](Nc3nc(-c4cnn5ccccc45)nc(OCCO)c3F)C2)nc1 [Example 57]    0.019

[a] O=C(CO)N1CCC[C@@H](Oc2nc(-c3cnn4ccccc34)nc(-c3ccnc(CO)c3)c2F)C1 [Example 74]
[b] CCOCCOc1nc(-c2cnn3ccccc23)nc(N[C@@H]2CCCN(C(=O)CO)C2)c1F [Example 83]
[c] CN(C)C1CCN(c2nc(-c3cnn4ccccc34)nc(N[C@H]3CC[C@H](CC#N)CC3)c2F)CC1 [Example 4]
Sequence the entries by IC50, beginning with the highest number. Write out the labels following the order that was asked for.
c, b, a

---

target: UniProt O60674; experiment: In vitro JAK kinase assay (TR-FRET), JAK2; details: catalytic domain aa 826-1132, GST-fusion; ATP 0.2 μM; peptide 20 nM; 30 minutes at room temperature
pIC50: −log10 of the molar value.
parameter_measured: pIC50

COc1nc(-c2cnn3ccccc23)nc(N[C@@H]2CCCN(C(=O)CO)C2)c1F    9.00
CCOC(=O)C1CCN(c2nc(-c3cnn4ccccc34)nc(N[C@@H]3CCCN(C(=O)CC#N)C3)c2F)CC1    9.22

[I] N#CC[C@H]1CC[C@H](Nc2nc(-c3cnn4ccccc34)nc(N3CCC(N)CC3)c2F)CC1
[II] Cc1ccc(-c2cc(N[C@@H]3CCCN(C(=O)CO)C3)nc(-c3cnn4ccccc34)n2)cn1
Identify the item whose pIC50 is the smaller number: I or II # answer = label of selected item
II
(II: 8.05, I: 9.00)

---

Target: JAK1 (Homo sapiens (Human))
Experiment: In vitro JAK kinase assay (TR-FRET), JAK1
Conditions: catalytic domain aa 850-1154, GST-fusion; ATP 3 μM; peptide 60 nM; 30 minutes at room temperature
Description: Compounds were screened for their ability to inhibit JAK1, JAK2 and JAK3 using the assays as indicated below. […] The enzymatic activity was assayed using as substrate a biotinylated peptide, poly (GT)-Biotin (CisBio). […] The degree of phosphorylation was detected by TR-FRET (time-resolved fluorescence energy transfer). […] Incubate for 3 h and read on Victor 2V spectrofluorometer (Perkin Elmer) set to read fluorescence resonance energy transfer.
pIC50: −log10 of the molar value.
parameter_measured: pIC50

Previously resolved entries follow.
N#CCC(=O)N1CCC[C@@H](Oc2nc(-c3cnn4ccccc34)nc(N3CCOCC3)c2F)C1 [Example 53]    8.70
CC(C)(O)Cn1cc(-c2nc(-c3cnn4ccccc34)nc(N[C@@H]3CCCN(C(=O)CO)C3)c2F)cn1 [Example 33]    8.22
N#CCC(=O)N1CCC[C@@H](Oc2nc(-c3cnn4ccccc34)nc(OCCO)c2F)C1 [Example 66]    8.00
O=C(CO)N1CCC[C@@H](Nc2cc(-c3cncc(O)c3)nc(-c3cnn4ccccc34)n2)C1 [Example 105]    8.70
N#CC[C@H]1CC[C@H](Nc2nc(-c3cnn4ccccc34)nc(N3CCC(O)CC3)c2F)CC1 [Example 1]    7.92

[A] COc1cc(-c2cc(N[C@@H]3CCCN(C(=O)CO)C3)nc(-c3cnn4ccccc34)n2)ccn1 [Example 98]
[B] COCCOc1nc(-c2cnn3ccccc23)nc(N[C@@H]2CCCN(C(=O)CO)C2)c1F [Example 39]
Identify the item whose pIC50 is the smaller number: A or B # answer = label of selected item
B
(B: 7.96, A: 8.52)
